Reference source for all entries: PubChem BioAssay (EPA / NIEHS)

Read-out: ABC Transporter (ABCB1), ABCB1 (gene 5243)
Assay: LTEA_HepaRG_ABCB1: Life Technologies and Expression Analysis (LTEA) Assay for ABC Transporter (ABCB1) using HepaRG (AID 2283460)
Settings: mRNA level, 48 h; actives raise or lower the signal
Experimental: LTEA_HepaRG is a cell based, multiplexed-readout assay that uses HepaRG, a human liver cell line, with measurements taken at 48 hours after chemical dosing on a 96-well plate.LTEA_HepaRG_ABCB1 is one of 102 assay component(s) measured in the LTEA HepaRG cell culture assay. It is a marker of Steatosis/NR mediated transport.Data from the assay component LTEA_HepaRG_ABCB1 was analyzed into 1 endpoint. […]
Calls of active or inactive are those of the source. The calls were made as follows: active = hit-call score of the fitted dose curve at least 0.9, where 1 is the maximum; inactive = score below 0.9.
Labels: active, inactive

{"columns": ["compound", "class label"],
 "data": [
  ["C[C@@H](Oc1ccc(CNC(=O)c2cccnc2Oc2ccc3c(c2)OCO3)c(F)c1)C(=O)O", "inactive"],
  ["OC(CCl)CCl", "inactive"],
  ["O=C(O)[C@H](O)[C@@H](O)C(=O)O", "inactive"],
  ["Nc1ccn([C@@H]2O[C@H](CO)[C@@H](O)[C@@H]2O)c(=O)n1", "inactive"],
  ["c1ccc2ncccc2c1", "inactive"],
  ["Cc1ccc(S(=O)(=O)NC(=O)NN2CCCCCC2)cc1", "active"],
  ["CCCCC(CC)C(=O)OCCOCCOCCOC(=O)C(CC)CCCC (stereo not given)", "inactive"],
  ["CCCCCCOC(=O)CC(CC(=O)OCCCCCC)(OC(=O)CCC)C(=O)OCCCCCC", "inactive"],
  ["C[C@]12C=CC(=O)C=C1CC[C@H]1[C@@H]3C[C@@H](O)[C@](O)(C(=O)CO)[C@@]3(C)C[C@H](O)[C@@]12F", "inactive"],
  ["OCc1ccccc1", "inactive"],
  ["O=c1[nH]cnc2c1ncn2[C@H]1CC[C@@H](CO)O1", "inactive"],
  ["OCC(CO)(CO)CO", "inactive"],
  ["Cc1ncc([C@@H](CCCCCCc2ccc3c(n2)NCCC3)CC(=O)O)cn1", "inactive"],
  ["CCCCCCCCCC", "inactive"],
  ["O=C1CN(N=Cc2ccc([N+](=O)[O-])o2)C(=O)N1", "inactive"]
]}
